# Tested on: Cryptococcus neoformans
# method: Antifungal activity against Cryptococcus neoformans 96-69 by standard microdilution method
# Assay type: functional
readoutName: MIC (µg/mL)

A selection of reference data follows.
{"columns": ["molecule", "systemTested", "assayResult"],
 "data": [
  ["C[N+](C)(C)CCOP(=O)([O-])OCCCCCCCCCCCCCCCCCCCCCCOP(=O)([O-])OCC[N+](C)(C)C", "Cryptococcus neoformans", 0.5],
  ["OCCCCCCCCCCCCCCCCO", "Cryptococcus neoformans", 62.5],
  ["C[N+](C)(C)CCOP(=O)(O)OCCCCCCCCCCCCCCCl.[Cl-]", "Cryptococcus neoformans", 0.5],
  ["O=P(OCCCCCCCCCCCCCCCCCCCCCCOP(=O)(Oc1ccccc1)Oc1ccccc1)(Oc1ccccc1)Oc1ccccc1", "Cryptococcus neoformans", 125],
  ["O=P(O)(OCCBr)OCCCCCCCCCCCCCCCCCCCCCCOP(=O)(O)OCCBr", "Cryptococcus neoformans", 500]
]}

P. C[N+](C)(C)CCOP(=O)([O-])OCCCCCCCCCCCCCCCCCCCCOP(=O)([O-])OCC[N+](C)(C)C
Q. CCCCCCCCCCCCCCCCCCCCCCOP(=O)(O)OCC[N+](C)(C)C.[Cl-]
R. O=P(O)(OCCBr)OCCCCCCCCCCCCCCCCOP(=O)(O)OCCBr
S. C[N+](C)(C)CCOP(=O)([O-])OCCCCCCCCCCCCCCCCCCCCCCOP(=O)([O-])OCC[N+](C)(C)C.Cl
Prompt line: Sort by MIC, descending. Please list the labels according to the requested order.
Response line: Q, R, P, S
(Q: 500 µg/mL, R: 125 µg/mL, P: 15.6 µg/mL, S: 0.5 µg/mL)

* * *

# Tested on: Cryptococcus neoformans
# method: Antifungal activity against Cryptococcus neoformans 96-69 by standard microdilution method
# Format: functional
readoutName: MIC (µg/mL)

{"columns": ["itemSmiles", "readoutName", "assayResult"],
 "data": [
  ["C[N+](C)(C)CCOP(=O)([O-])OCCCCCCCCCCCCOP(=O)([O-])OCC[N+](C)(C)C", "MIC", 250]
]}

A. C[N+](C)(C)CCOP(=O)([O-])OCCCCCCCCCCCCCCOP(=O)([O-])OCC[N+](C)(C)C
B. C[N+](C)(C)CCOP(=O)(O)OCCCCCCCCCCCCCCCCCl.[Cl-]
Prompt line: I'm curious whether A or B has the smaller MIC number. Which is it? Answer by stating the label of the chosen item.
Response line: B
(B: 0.5 µg/mL, A: 250 µg/mL)

* * *

# Tested on: Cryptococcus neoformans
# method: Antifungal activity against Cryptococcus neoformans ATCC 36556 by standard microdilution method
# Format: functional
readoutName: MIC (µg/mL)

{"columns": ["itemSmiles", "systemTested", "unitOfMeasurement", "assayResult"],
 "data": [
  ["C[N+](C)(C)CCOP(=O)(O)OCCCCCCCCCCCCCCCl.[Cl-]", "Cryptococcus neoformans", "µg/mL", 1],
  ["CCCCCCCCCCCCCCCCOP(=O)(O)OCC[N+](C)(C)C.[Cl-]", "Cryptococcus neoformans", "µg/mL", 0.5],
  ["CCCCCCCCCCCCCCCCO", "Cryptococcus neoformans", "µg/mL", 62.5],
  ["O=P(O)(OCCBr)OCCCCCCCCCCCCCCCCCCCCCCOP(=O)(O)OCCBr", "Cryptococcus neoformans", "µg/mL", 500]
]}

A. CCCCCCCCCCCCCCCCCCCCCCOP(=O)(O)OCC[N+](C)(C)C.[Cl-]
B. C[N+](C)(C)CCOP(=O)([O-])OCCCCCCCCCCCCCCCCCCCCOP(=O)([O-])OCC[N+](C)(C)C
Prompt line: Between the two listed entries A and B , which has its MIC at the higher number? Answer by stating the label of the chosen item.
Response line: A
(A: 250 µg/mL, B: 15.6 µg/mL)
